Tested on: Daudi
assay.text: Antiproliferative activity against human Daudi cells assessed as growth inhibition after 72 hrs by Cell Titer Glo assay
Format: functional, cell-based
assay.metric: IC50 (µM)

smiles_notation=COc1cc2ccccc2c(Cc2c(-c3ccc(C)cc3)[nH][nH]c2=O)c1O readout_units=µM reported=21

* * *

pIC50: −log10 of the molar value.
The reader will find pIC50 measurements below, all made with NAD-dependent protein deacetylase sirtuin-3, mitochondrial (Homo sapiens, UniProt Q9NTG7).
Sequence (Q9NTG7 whole entry): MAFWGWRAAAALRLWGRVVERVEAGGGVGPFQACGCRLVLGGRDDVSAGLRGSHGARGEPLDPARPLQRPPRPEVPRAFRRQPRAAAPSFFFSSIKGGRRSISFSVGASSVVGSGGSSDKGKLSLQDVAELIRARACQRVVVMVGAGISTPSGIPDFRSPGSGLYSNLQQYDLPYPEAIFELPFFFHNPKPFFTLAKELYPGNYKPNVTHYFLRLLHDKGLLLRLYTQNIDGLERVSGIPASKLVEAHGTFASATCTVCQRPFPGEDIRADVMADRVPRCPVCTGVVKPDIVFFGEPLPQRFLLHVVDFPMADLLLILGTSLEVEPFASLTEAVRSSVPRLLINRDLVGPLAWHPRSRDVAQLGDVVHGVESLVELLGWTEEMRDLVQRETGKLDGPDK
assay.metric: pIC50

smiles_notation=COc1cc2ccccc2c(Cc2c(-c3ccc(C)cc3)[nH][nH]c2=O)c1O tested_target="NAD-dependent protein deacetylase sirtuin-3, mitochondrial (Homo sapiens, UniProt Q9NTG7)" reported="< 3.70"
smiles_notation=Cc1ccc(-c2[nH]oc(=O)c2Cc2c(O)ccc3cc(Br)ccc23)cc1 tested_target="NAD-dependent protein deacetylase sirtuin-3, mitochondrial (Homo sapiens, UniProt Q9NTG7)" reported="< 3.70"
smiles_notation=CC(C)c1ccc(-c2[nH][nH]c(=O)c2Cc2c(O)ccc3nc(Cl)ccc23)cc1 tested_target="NAD-dependent protein deacetylase sirtuin-3, mitochondrial (Homo sapiens, UniProt Q9NTG7)" reported=3.91
smiles_notation=Cc1ccc(-c2[nH][nH]c(=O)c2Cc2c(O)ccc3cc(Br)ccc23)cc1 tested_target="NAD-dependent protein deacetylase sirtuin-3, mitochondrial (Homo sapiens, UniProt Q9NTG7)" reported="< 3.70"
